# method: Chemical analysis of muscle with skin after injection (Example 7)
# Format: in vivo, salmon (Salmo salar)
# conditionSummary: fish, 50 mg/kg, T8, 238 days after vaccination, read-out: concentration of hexaflumuron in muscle/skin

smiles	concentration at 5712 h
O=C(NC(=O)c1c(F)cccc1F)Nc1cc(Cl)c(OC(F)(F)C(F)F)c(Cl)c1	490 to 530 ng/g

---

# method: Chemical analysis of muscle with skin after injection (Example 7)
# Format: in vivo, salmon (Salmo salar)
# conditionSummary: fish, 50 mg/kg, T11, 345 days after injection, first-named group, read-out: muscle/skin concentration of hexaflumuron

smiles	quantityUnit	concentration at 8280 h
O=C(NC(=O)c1c(F)cccc1F)Nc1cc(Cl)c(OC(F)(F)C(F)F)c(Cl)c1	ng/g	130

---

# method: Chemical analysis of muscle/skin after injection of hexaflumuron formulations (Example 8)
# Format: in vivo, salmon smolt
# conditionSummary: fish, muscle/skin, 50 mg/kg, T8 (218 days after injection); Apoject 1-Fural group

smiles	concentration at 5232 h [ng/g]
O=C(NC(=O)c1c(F)cccc1F)Nc1cc(Cl)c(OC(F)(F)C(F)F)c(Cl)c1	260

---

# method: Chemical analysis of muscle/skin tissue after oral treatment (Example 6)
# Type: in vivo, Atlantic salmon (Salmo salar)
# conditionSummary: atlantic salmon, 5.6 mg/kg, 65 days after completed oral medication, five fish, read-out: average concentration of hexaflumuron in muscle/skin tissue
# Procedure: Two days after oral treatment had been completed and at timepoint 3 (65 days after completed medication), muscle/skin tissue from five fish in group 1 was chemically analysed to check the concentration of hexaflumuron. The average concentration of hexaflumuron two days after completed medication was 4.4 µg/g tissue. 65 days after, the average concentration level was 1.2 µg/g tissue.

smiles	concentration at 1560 h
O=C(NC(=O)c1c(F)cccc1F)Nc1cc(Cl)c(OC(F)(F)C(F)F)c(Cl)c1	1200 ng/g

---

# method: Chemical analysis of muscle/skin after injection of hexaflumuron formulations (Example 8)
# Assay type: in vivo, salmon smolt
# conditionSummary: fish, muscle/skin, 50 mg/kg, T8 (218 days after injection); animal oil group

smiles	concentration at 5232 h
O=C(NC(=O)c1c(F)cccc1F)Nc1cc(Cl)c(OC(F)(F)C(F)F)c(Cl)c1	270 ng/g

---

# method: Chemical analysis of muscle with skin after injection (Example 7)
# Type: in vivo, salmon (Salmo salar)
# conditionSummary: fish, 50 mg/kg, at sea water transfer (23 days after injection of about 50 mg/kg), read-out: muscle/skin concentrations

smiles	concentration at 552 h
O=C(NC(=O)c1c(F)cccc1F)Nc1cc(Cl)c(OC(F)(F)C(F)F)c(Cl)c1	2000 to 3000 ng/g
